Provenance of the data: patent US9169205B2

metric name: pIC50
pIC50 (log units): -log10 of the concentration in mol/L.

Request: # assay system human ACC2 (Homo sapiens (Human)): give pIC50 of CNC(=O)N[C@@H](C)c1ccc(OC2CCN(c3ccc(OCC4CC4)cc3)C2)cc1 (some centres unmarked)
Result: 7.14

Request: Find the measured pIC50 of CO[C@@H]1CN(c2ccc(OCC3CC3)cc2)CC1Oc1ccc([C@H](C)NC(C)=O)cc1 (some centres unmarked) with human ACC2 (Homo sapiens (Human)) as test system.
Sequence (O00763 129-2458): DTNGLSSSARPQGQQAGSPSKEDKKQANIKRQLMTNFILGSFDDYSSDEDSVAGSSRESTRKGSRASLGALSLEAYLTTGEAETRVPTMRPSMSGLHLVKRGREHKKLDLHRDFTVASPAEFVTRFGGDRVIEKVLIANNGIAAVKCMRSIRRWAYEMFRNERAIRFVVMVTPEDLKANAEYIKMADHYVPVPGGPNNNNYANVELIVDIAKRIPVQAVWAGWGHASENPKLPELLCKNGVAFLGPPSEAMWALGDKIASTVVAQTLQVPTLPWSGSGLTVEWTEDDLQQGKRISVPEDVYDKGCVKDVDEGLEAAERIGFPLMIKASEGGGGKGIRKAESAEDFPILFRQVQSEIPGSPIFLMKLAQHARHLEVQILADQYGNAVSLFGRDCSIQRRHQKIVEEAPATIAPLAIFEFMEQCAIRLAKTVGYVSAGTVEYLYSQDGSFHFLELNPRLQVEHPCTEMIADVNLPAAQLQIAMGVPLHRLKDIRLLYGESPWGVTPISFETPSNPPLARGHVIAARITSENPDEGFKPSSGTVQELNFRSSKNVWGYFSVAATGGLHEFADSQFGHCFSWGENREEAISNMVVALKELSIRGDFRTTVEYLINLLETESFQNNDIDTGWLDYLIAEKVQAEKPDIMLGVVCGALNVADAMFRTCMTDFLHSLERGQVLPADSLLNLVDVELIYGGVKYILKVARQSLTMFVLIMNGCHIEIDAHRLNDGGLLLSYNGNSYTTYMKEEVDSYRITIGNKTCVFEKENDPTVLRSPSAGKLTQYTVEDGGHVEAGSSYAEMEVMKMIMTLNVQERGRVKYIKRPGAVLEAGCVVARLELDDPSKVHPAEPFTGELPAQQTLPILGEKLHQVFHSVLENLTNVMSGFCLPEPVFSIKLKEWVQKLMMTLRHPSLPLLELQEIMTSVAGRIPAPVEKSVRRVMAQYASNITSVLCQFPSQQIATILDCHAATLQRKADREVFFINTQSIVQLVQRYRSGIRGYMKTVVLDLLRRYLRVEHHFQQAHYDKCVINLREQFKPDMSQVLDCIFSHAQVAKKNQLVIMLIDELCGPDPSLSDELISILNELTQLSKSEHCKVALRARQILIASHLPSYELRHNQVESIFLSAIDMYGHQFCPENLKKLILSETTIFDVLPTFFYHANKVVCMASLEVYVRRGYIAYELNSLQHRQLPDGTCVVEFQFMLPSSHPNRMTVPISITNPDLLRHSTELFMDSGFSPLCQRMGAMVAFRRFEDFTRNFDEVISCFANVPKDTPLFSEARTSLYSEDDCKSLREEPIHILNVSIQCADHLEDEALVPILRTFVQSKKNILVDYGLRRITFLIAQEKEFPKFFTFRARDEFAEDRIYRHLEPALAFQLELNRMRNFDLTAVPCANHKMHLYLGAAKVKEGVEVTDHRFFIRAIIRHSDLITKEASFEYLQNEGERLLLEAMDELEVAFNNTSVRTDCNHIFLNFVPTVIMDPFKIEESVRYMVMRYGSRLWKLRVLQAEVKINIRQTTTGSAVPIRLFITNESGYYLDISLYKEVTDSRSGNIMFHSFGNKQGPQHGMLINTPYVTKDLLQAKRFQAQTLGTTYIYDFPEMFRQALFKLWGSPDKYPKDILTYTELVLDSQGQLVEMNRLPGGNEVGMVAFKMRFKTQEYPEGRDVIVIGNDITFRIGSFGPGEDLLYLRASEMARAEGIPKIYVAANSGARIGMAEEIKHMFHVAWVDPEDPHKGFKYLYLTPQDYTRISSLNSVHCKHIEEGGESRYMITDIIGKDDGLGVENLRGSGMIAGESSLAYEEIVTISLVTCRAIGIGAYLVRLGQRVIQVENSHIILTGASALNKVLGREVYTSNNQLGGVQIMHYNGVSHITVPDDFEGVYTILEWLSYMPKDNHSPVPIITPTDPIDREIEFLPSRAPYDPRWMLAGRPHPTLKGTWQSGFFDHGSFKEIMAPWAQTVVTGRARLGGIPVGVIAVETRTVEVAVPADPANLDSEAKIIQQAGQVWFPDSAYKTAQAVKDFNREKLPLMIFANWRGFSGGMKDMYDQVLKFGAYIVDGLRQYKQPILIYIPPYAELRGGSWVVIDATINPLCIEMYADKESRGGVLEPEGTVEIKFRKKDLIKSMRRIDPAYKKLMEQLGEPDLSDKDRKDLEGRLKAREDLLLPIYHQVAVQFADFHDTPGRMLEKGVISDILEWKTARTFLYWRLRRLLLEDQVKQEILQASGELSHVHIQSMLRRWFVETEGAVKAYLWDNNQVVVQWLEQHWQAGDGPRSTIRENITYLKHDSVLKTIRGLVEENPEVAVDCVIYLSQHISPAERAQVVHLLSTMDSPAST
Result: 6.76

Request: Find the measured pIC50 of COC(=O)N[C@@H](C)c1ccc(O[C@@H]2CCN(c3ccc(OCC4CC4)cc3)C2)cc1 with human ACC2 (Homo sapiens (Human)) as test system.
Result: 7.31

Request: Tell me pIC50 of C[C@H](NC(=O)c1cnc(N)o1)c1ccc(O[C@@H]2CCN(c3ccc(OCC4CC4)cc3)C2)cc1 when tested on human ACC2 (Homo sapiens (Human)).
Result: 6.97

Request: State recorded pIC50 with human ACC2 (Homo sapiens (Human)), entry CCC(=O)N[C@@H](C)c1ccc(O[C@@H]2CCN(c3ccc(OCC4CC4)cc3)C2)cc1 , no comment.
Result: 7.40

Request: Give measured pIC50 for CC(=O)N[C@@H](C)c1ccc(OC2CCN(c3ccc(Cl)cc3)C2)cc1 (some centres unmarked) (human ACC2 (Homo sapiens (Human))).
Result: 6.05

Request: Quote human ACC2 (Homo sapiens (Human)) pIC50 for entry CNC(=O)N[C@@H](C)c1ccc(OC2CCN(c3ccc(OC(C)C)cc3)C2)cc1 (some centres unmarked) .
Result: 6.69

Request: Under human ACC2 (Homo sapiens (Human)), report pIC50 for CC(=O)N[C@@H](C)c1ccc(OC2CCN(c3cc(C(F)(F)F)ccc3C)C2)cc1 (some centres unmarked)
Result: 6.76
